Field: isobaric coefficient of expansion. Provide a value for each of the compounds that follow.
test.protocol: isobaric coefficient of expansion
condition.set: 288.15 K; 5000 kPa; Liquid; Micro DSCII

Take a look at these entries with their results.
>>> df
                                   compound        result
0  CCCCn1cc[n+](C)c1.F[B-](F)(F)F [1-butyl-3-methylimidazolium tetrafluoroborate]  0.000598 1/K
1  CCCCn1cc[n+](C)c1.COS(=O)(=O)[O-] [1-butyl-3-methylimidazolium methyl sulfate]  0.000557 1/K
2  CCCC[n+]1ccn(C)c1.O=S(=O)([N-]S(=O)(=O)C(F)(F)F)C(F)(F)F  0.000665 1/K
3  CCCCn1cc[n+](C)c1.O=S(=O)([O-])C(F)(F)F [1-butyl-3-methylimidazolium trifluoromethanesulfonate]  0.000617 1/K

Now look at this entry.
Entry under test: CCCCn1cc[n+](C)c1.[F][Sb-]([F])([F])([F])([F])[F] [1-butyl-3-methylimidazolium hexafluoroantimonate] . Its isobaric coefficient of expansion was 0.00063 1/K

###

test.protocol: isobaric coefficient of expansion
condition.set: 288.15 K; 15000 kPa; Liquid; Micro DSCII
result.type: isobaric coefficient of expansion

// below: answered compounds
>>> print(df.to_string())
                                   compound        result
0  CCCCn1cc[n+](C)c1.COS(=O)(=O)[O-] [1-butyl-3-methylimidazolium methyl sulfate]  0.000543 1/K
1  CCCCn1cc[n+](C)c1.[F][Sb-]([F])([F])([F])([F])[F] [1-butyl-3-methylimidazolium hexafluoroantimonate]  0.000614 1/K
2  CCCC[n+]1ccn(C)c1.O=S(=O)([N-]S(=O)(=O)C(F)(F)F)C(F)(F)F  0.000646 1/K
3  CCCCn1cc[n+](C)c1.O=S(=O)([O-])C(F)(F)F [1-butyl-3-methylimidazolium trifluoromethanesulfonate]  0.000599 1/K

Moving on to another compound below.
Sure, the documented isobaric coefficient of expansion for CCCCn1cc[n+](C)c1.F[B-](F)(F)F [1-butyl-3-methylimidazolium tetrafluoroborate] is 0.000587 1/K

###

test.protocol: isobaric coefficient of expansion
condition.set: 298.15 K; 30000 kPa; Liquid; Micro DSCII
result.type: isobaric coefficient of expansion

Field: example entries. Status: answers known.
In [3]: df
Out[3]:
                                   compound        result
0  CCCCn1cc[n+](C)c1.COS(=O)(=O)[O-] [1-butyl-3-methylimidazolium methyl sulfate]  0.000524 1/K
1  CCCCn1cc[n+](C)c1.[F][Sb-]([F])([F])([F])([F])[F] [1-butyl-3-methylimidazolium hexafluoroantimonate]  0.000588 1/K
2  CCCC[n+]1ccn(C)c1.O=S(=O)([N-]S(=O)(=O)C(F)(F)F)C(F)(F)F  0.000616 1/K

# batch: return isobaric coefficient of expansion for each of the 2 compounds below
1. CCCCn1cc[n+](C)c1.F[B-](F)(F)F [1-butyl-3-methylimidazolium tetrafluoroborate]
2. CCCCn1cc[n+](C)c1.O=S(=O)([O-])C(F)(F)F [1-butyl-3-methylimidazolium trifluoromethanesulfonate]

A:
1: 0.000563 1/K; 2: 0.000574 1/K

###

test.protocol: isobaric coefficient of expansion
condition.set: 288.15 K; 25000 kPa; Liquid; Micro DSCII
result.type: isobaric coefficient of expansion

The cases that follow already have their isobaric coefficient of expansion on record.
>>> print(df.to_string())
                                   compound        result
0  CCCCn1cc[n+](C)c1.[F][Sb-]([F])([F])([F])([F])[F] [1-butyl-3-methylimidazolium hexafluoroantimonate]  0.000603 1/K
1  CCCCn1cc[n+](C)c1.O=S(=O)([O-])C(F)(F)F [1-butyl-3-methylimidazolium trifluoromethanesulfonate]  0.000588 1/K

The following compounds each have a reported value; give each one's isobaric coefficient of expansion.
1. CCCCn1cc[n+](C)c1.F[B-](F)(F)F [1-butyl-3-methylimidazolium tetrafluoroborate]
2. CCCC[n+]1ccn(C)c1.O=S(=O)([N-]S(=O)(=O)C(F)(F)F)C(F)(F)F
3. CCCCn1cc[n+](C)c1.COS(=O)(=O)[O-] [1-butyl-3-methylimidazolium methyl sulfate]

A:
1. 0.000577 1/K
2. 0.000632 1/K
3. 0.000537 1/K

###

test.protocol: isobaric coefficient of expansion
condition.set: 328.15 K; 40000 kPa; Liquid; Micro DSCII
Exercise: state measured isobaric coefficient of expansion for each of the compounds provided.

Completed entries (count: 4):
In [3]: df
Out[3]:
                                   compound        result
0  CCCCn1cc[n+](C)c1.F[B-](F)(F)F [1-butyl-3-methylimidazolium tetrafluoroborate]  0.000534 1/K
1  CCCCn1cc[n+](C)c1.COS(=O)(=O)[O-] [1-butyl-3-methylimidazolium methyl sulfate]  0.000498 1/K
2  CCCC[n+]1ccn(C)c1.O=S(=O)([N-]S(=O)(=O)C(F)(F)F)C(F)(F)F  0.000582 1/K
3  CCCCn1cc[n+](C)c1.[F][Sb-]([F])([F])([F])([F])[F] [1-butyl-3-methylimidazolium hexafluoroantimonate]  0.000559 1/K

Then there is this compound:
So, CCCCn1cc[n+](C)c1.O=S(=O)([O-])C(F)(F)F [1-butyl-3-methylimidazolium trifluoromethanesulfonate] ? Its isobaric coefficient of expansion was 0.000544 1/K

###

Record form. Attribute: isobaric coefficient of expansion. Fill in for each entry.
test.protocol: isobaric coefficient of expansion
condition.set: 338.15 K; 20000 kPa; Liquid; Micro DSCII

Consider the following illustrative entries.
>>> print(df.to_string())
                                   compound                        result_type        result
0  CCCCn1cc[n+](C)c1.F[B-](F)(F)F [1-butyl-3-methylimidazolium tetrafluoroborate]  isobaric coefficient of expansion  0.000552 1/K
1  CCCCn1cc[n+](C)c1.[F][Sb-]([F])([F])([F])([F])[F] [1-butyl-3-methylimidazolium hexafluoroantimonate]  isobaric coefficient of expansion  0.000585 1/K
2  CCCCn1cc[n+](C)c1.COS(=O)(=O)[O-] [1-butyl-3-methylimidazolium methyl sulfate]  isobaric coefficient of expansion  0.000514 1/K

Respectfully, I request isobaric coefficient of expansion for each entry included below.
1. CCCC[n+]1ccn(C)c1.O=S(=O)([N-]S(=O)(=O)C(F)(F)F)C(F)(F)F
2. CCCCn1cc[n+](C)c1.O=S(=O)([O-])C(F)(F)F [1-butyl-3-methylimidazolium trifluoromethanesulfonate]

A:
["0.000615 1/K", "0.000571 1/K"]

###

test.protocol: isobaric coefficient of expansion
condition.set: 318.15 K; 20000 kPa; Liquid; Micro DSCII
Please go through the items and note down their isobaric coefficient of expansion.

Could you report isobaric coefficient of expansion for every entry in the following list?
1. CCCCn1cc[n+](C)c1.O=S(=O)([O-])C(F)(F)F [1-butyl-3-methylimidazolium trifluoromethanesulfonate]
2. CCCCn1cc[n+](C)c1.F[B-](F)(F)F [1-butyl-3-methylimidazolium tetrafluoroborate]
3. CCCC[n+]1ccn(C)c1.O=S(=O)([N-]S(=O)(=O)C(F)(F)F)C(F)(F)F
4. CCCCn1cc[n+](C)c1.[F][Sb-]([F])([F])([F])([F])[F] [1-butyl-3-methylimidazolium hexafluoroantimonate]
5. CCCCn1cc[n+](C)c1.COS(=O)(=O)[O-] [1-butyl-3-methylimidazolium methyl sulfate]

A:
1: 0.000579 1/K; 2: 0.000561 1/K; 3: 0.000623 1/K; 4: 0.000591 1/K; 5: 0.000522 1/K

###

test.protocol: isobaric coefficient of expansion
condition.set: 288.15 K; 40000 kPa; Liquid; Micro DSCII
result.type: isobaric coefficient of expansion

// below: answered compounds
>>> print(df.to_string())
                                   compound        result
0  CCCCn1cc[n+](C)c1.[F][Sb-]([F])([F])([F])([F])[F] [1-butyl-3-methylimidazolium hexafluoroantimonate]  0.000582 1/K
1  CCCCn1cc[n+](C)c1.O=S(=O)([O-])C(F)(F)F [1-butyl-3-methylimidazolium trifluoromethanesulfonate]  0.000566 1/K
2  CCCC[n+]1ccn(C)c1.O=S(=O)([N-]S(=O)(=O)C(F)(F)F)C(F)(F)F  0.000606 1/K
3  CCCCn1cc[n+](C)c1.COS(=O)(=O)[O-] [1-butyl-3-methylimidazolium methyl sulfate]   0.00052 1/K

Kindly review the next compound as well.
Short answer for CCCCn1cc[n+](C)c1.F[B-](F)(F)F [1-butyl-3-methylimidazolium tetrafluoroborate] : isobaric coefficient of expansion was 0.000557 1/K
